Origin of values: patent US20170081400A1

The following binders are shown together with reported TL1A Binding Level (Early) values.
Molecular target: T1, human TL1A extracellular domain with N-terminal HIS and FLAG tag (human, UniProt O95150 72-251)
T1 construct: the whole entry is named
T1 sequence: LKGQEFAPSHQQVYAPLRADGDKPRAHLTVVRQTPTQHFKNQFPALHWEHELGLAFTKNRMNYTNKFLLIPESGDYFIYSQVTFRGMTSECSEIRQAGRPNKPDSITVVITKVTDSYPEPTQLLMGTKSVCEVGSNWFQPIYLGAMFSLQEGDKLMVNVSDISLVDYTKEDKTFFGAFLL
Experiment: SPR Run 6, purified Ab captured on Protein A, TL1A 5 ug/mL, timepoint 44
Express your answer in RU, writing the number without its unit.

Here are 2 binders together with their reported answers.
320-434 (antibody, human IgG1, name in Kabat numbering, V domains shown, human IgG1, lambda) VH: QVQLVQSGAEVKKPGASVKVSCKASGYTFTKYDINWVRQAPGQGLEWMGWLNPNSGNTGYAQKFQGRVTMTADRSTSTAYMELSSLRSEDTAVYYCAREVPETAAFEYWGQGTLVTVSS VL: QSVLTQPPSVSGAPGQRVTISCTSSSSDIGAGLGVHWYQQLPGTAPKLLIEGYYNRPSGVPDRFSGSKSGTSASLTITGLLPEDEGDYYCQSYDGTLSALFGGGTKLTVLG
125
320-472 (antibody, human IgG1, name in Kabat numbering, V domains shown, human IgG1, lambda) VH: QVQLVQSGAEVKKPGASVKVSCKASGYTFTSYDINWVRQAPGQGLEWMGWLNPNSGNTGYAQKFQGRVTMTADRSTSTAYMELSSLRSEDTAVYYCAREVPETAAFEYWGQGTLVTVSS VL: QSVLTQPPSVSGAPGQRVTISCTSSSSDIGAGLGVHWYQQLPGTAPKLLIEGYYNRPSGVPDRFSGSKSGTSASLTITGLLPEDEGDYYCQLYDGTLSALFGGGTKLTVLG
23

Now consider the entry below.
Please supply the value of reported TL1A Binding Level (Early) for the item 320-453 (antibody, human IgG1, name in Kabat numbering, V domains shown, human IgG1, lambda) VH: QVQLVQSGAEVKKPGASVKVSCKASGYTFTSYYINWVRQAPGQGLEWMGWLNPNSGNTGYAQKFQGRVTMTADRSTSTAYMELSSLRSEDTAVYYCAREVPETAAFEYWGQGTLVTVSS VL: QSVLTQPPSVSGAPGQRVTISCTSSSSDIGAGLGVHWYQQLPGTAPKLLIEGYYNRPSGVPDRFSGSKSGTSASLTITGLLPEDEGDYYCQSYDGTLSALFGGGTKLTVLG
111
